biological target: T1, cyBCMA (cynomolgus, UniProt A0A2K5UD97 1-53); assay: SPR, immobilised IgG, 37° C
T1 construct: Soluble analyte in SPR; construct not described; also called cyno BCMA
T1 sequence (A0A2K5UD97 entry or part of it): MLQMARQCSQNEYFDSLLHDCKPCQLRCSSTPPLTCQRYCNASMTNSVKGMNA
Provide the recorded T½ for the entries that follow.
Answers are plain numbers, in min.

IN: Quick one: T½ of L3.PY/H3.YA (antibody, V domains shown, IgG in the assay) VH: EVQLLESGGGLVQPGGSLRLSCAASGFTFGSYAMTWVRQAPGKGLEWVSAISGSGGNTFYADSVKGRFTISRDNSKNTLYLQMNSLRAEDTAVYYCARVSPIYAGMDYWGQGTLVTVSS VL: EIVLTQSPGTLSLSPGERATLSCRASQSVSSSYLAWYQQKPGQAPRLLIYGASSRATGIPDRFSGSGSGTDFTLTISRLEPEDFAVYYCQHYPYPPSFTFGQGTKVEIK ?
OUT: 2.14

IN: Form field: reported T½ of L3.PY/L1.PS/H3.AE (antibody, V domains shown, IgG in the assay) VH: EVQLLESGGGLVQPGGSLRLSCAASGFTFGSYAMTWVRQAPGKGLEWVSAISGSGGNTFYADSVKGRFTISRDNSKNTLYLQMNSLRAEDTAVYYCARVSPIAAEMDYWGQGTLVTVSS VL: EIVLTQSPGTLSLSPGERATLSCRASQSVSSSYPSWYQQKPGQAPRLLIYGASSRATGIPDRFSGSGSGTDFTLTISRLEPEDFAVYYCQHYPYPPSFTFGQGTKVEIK
OUT: 2.8

New cases:
IN: T½ lookup needed for L3.PY/L1.AH/H2.HA (antibody, V domains shown, IgG in the assay) VH: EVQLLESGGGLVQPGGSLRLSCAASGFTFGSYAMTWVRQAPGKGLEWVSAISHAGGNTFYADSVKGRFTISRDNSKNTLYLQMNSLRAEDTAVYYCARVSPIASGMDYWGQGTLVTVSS VL: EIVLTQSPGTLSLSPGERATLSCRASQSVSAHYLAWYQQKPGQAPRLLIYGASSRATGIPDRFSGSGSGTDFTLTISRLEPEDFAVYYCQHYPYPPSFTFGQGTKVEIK , thanks.
OUT: 2.63
